Recorded GI50 for the following compounds
test system: OVCAR-4; test: NCI tumour cell line growth inhibition, 48 h
Calls of active or inactive are those of the source. No stated cut-off is given here; in the data, active = GI50 up to about 1.1 µM and inactive = higher.

Here's what some known entries look like.
>  <compound>
O=C1C(Cl)=C(N2CCN(c3ccccn3)CC2)C(=O)c2c(O)ccc(O)c21

>  <GI50>
1.59 µM (inactive)

$$$$
>  <compound>
COc1ccc(N2C(=O)C3c4[nH]c5ccccc5c4C4CCCCC4C3C2=O)cc1 (centres undefined)

>  <GI50>
5.4 µM (inactive)

$$$$
>  <compound>
O=C1C[C@@H]2[C@@H](c3ccccc3)[C@@H]3C(=O)c4ccccc4NC(=O)[C@H]3[C@]2(O)c2ccccc2N1

>  <GI50>
> 100 µM (inactive)

$$$$
>  <compound>
CC(=O)NC(CCCNC(=O)NCCCl)C(=O)NCc1ccccc1 (centres undefined)

>  <GI50>
> 100 µM (inactive)

$$$$
>  <compound>
COc1cc2c[n+](C)c3c4cc(OC)c(OC)cc4c(OCc4ccccc4)cc3c2cc1OC

>  <GI50>
2.02 µM (inactive)

$$$$

Here is the next item to consider.
[ask] Fill in the blank: the reported GI50 of CN(C)c1ccc(C2ON=C(c3ccccc3)N2C23CC4CC(CC(C4)C2)C3)cc1 (centres undefined) is ____.
[reply] > 10 µM (inactive)

----------
test system: RXF 631; experiment: NCI tumour cell line growth inhibition, 48 h
Calls of active or inactive are those of the source. No stated cut-off is given here; in the data, active = GI50 up to about 1.1 µM and inactive = higher.
parameter: GI50

Here's what some known entries look like.
>  <compound>
CCOC(=O)C(C(=O)c1ccccc1-c1ccccc1C(=O)O)=P(c1ccccc1)(c1ccccc1)c1ccccc1

>  <GI50>
37.8 µM (inactive)

$$$$
>  <compound>
CC(=O)NNc1nc(C)c(C(=O)NNC(=O)C(=O)Nc2nc3ccc([N+](=O)[O-])cc3s2)s1

>  <GI50>
41.6 µM (inactive)

$$$$
>  <compound>
C=CCOCCCC(=O)C(=[N+]=[N-])C(=O)OC

>  <GI50>
> 100 µM (inactive)

$$$$
>  <compound>
COc1ccc(-c2cc(-c3ccccc3)c(C#N)c(=O)n2C2OC(CO)C(O)C(O)C2O)cc1 (configuration not stated)

>  <GI50>
> 100 µM (inactive)

$$$$
>  <compound>
COc1cc(=O)oc(/C=C/CO)c1C

>  <GI50>
> 100 µM (inactive)

$$$$

[ask] Fill in the recorded GI50 for this compound, with RXF 631 as test system: "CC1=C(C(=O)CC(=O)C(=O)Nc2ccccc2C(F)(F)F)Sc2ccccc2N1"
[reply] 86.5 µM (inactive)

[ask] Check "COc1cc(Nc2nc3cc(C(F)(F)F)ccc3nc2-c2ccccc2)cc(OC)c1OC" too.
[reply] 61.8 µM (inactive)

[ask] Check "C[Si](C)(C)CC(N)=O" too.
[reply] > 100 µM (inactive)

[ask] Check "O=c1c2cc(Br)cc(Br)c2nc(CCCl)n1CCO" too.
[reply] > 100 µM (inactive)

[ask] Check "COc1cc2c(Cc3cc(OCc4ccccc4)ccc3N)nccc2c(OC)c1OC" too.
[reply] 6.55 µM (inactive)

----------
tested on: SR; experiment: NCI tumour cell line growth inhibition, 48 h
Active and inactive are the calls of the source. Rule as the data show it: active = GI50 up to about 1.1 µM and inactive = higher.
Could you please pick one outcome from this set? 1.0 (active), 0.0 (inactive)

>  <compound>
C[C@@H]1C[C@](O)([C@@H](C)Cl)C(=O)O[C@@H]2CCN3CC=C(COC(=O)[C@]1(C)O)[C@H]23

>  <measuredOn>
SR

>  <cat>
0.0

$$$$
>  <compound>
C=C(C)CC(C(=O)O)c1ccc(C)cc1 (centres undefined)

>  <measuredOn>
SR

>  <cat>
0.0

$$$$
>  <compound>
C/C(=N/N)c1sc(-c2nc(C)c(/C(C)=N\N)s2)nc1C

>  <measuredOn>
SR

>  <cat>
0.0

$$$$
>  <compound>
COc1ccc2oc(=O)c(-c3csc(C)n3)cc2c1

>  <measuredOn>
SR

>  <cat>
0.0

$$$$

[ask] GET /call?item= "O=C(O)CN1C(=O)CN=C(c2ccccn2)c2cc(Cl)ccc21" returns the recorded outcome of this test.
[reply] 1.0

[ask] Check CN1CCCOC(c2ccc(Cl)cc2)O1 (centres undefined) too.
[reply] 0.0

[ask] Check "Cc1ncc([N+](=O)[O-])n1CCN=[N+]=[N-]" too.
[reply] 0.0

[ask] Check "O=C(Nc1ccc(Cl)c(Cl)c1)OCCN1c2ccccc2Sc2ccccc21" too.
[reply] 0.0

[ask] Check COc1ccccc1C(C1=C(O)COC1=O)c1cc2c(cc1OC(C)=O)OCO2 (centres undefined) too.
[reply] 0.0

----------
test system: NCI/ADR-RES; test: NCI tumour cell line growth inhibition, 48 h
Activity calls are given as the source filed them. Rule as the data show it: active = GI50 up to about 1.1 µM and inactive = higher.
Could you please pick one outcome from this set? active, inactive

>  <compound>
Cc1cc(S(=O)(=O)Nc2nc(N)n(-c3cnc4ccccc4n3)n2)c(S)cc1Cl

>  <cat>
inactive

$$$$
>  <compound>
COC(=O)/C=C/c1ccc2c(c1)CC1(C2)Cc2cc3c(cc2C1=O)CCC3 (stereo unspecified)

>  <cat>
inactive

$$$$
>  <compound>
Cc1ccc(/C=N/Nc2nncc3ccccc23)s1

>  <cat>
inactive

$$$$
>  <compound>
O=[N+]([O-])c1ccc(N2N=C(c3ccc4ccccc4c3O)CC2c2ccc(Cl)cc2)c([N+](=O)[O-])c1 (stereo unspecified)

>  <cat>
inactive

$$$$
>  <compound>
O=C1CCSc2c(cnc3ccccc23)N1

>  <cat>
inactive

$$$$
>  <compound>
O=C1CC(=O)n2cnc3cccc(c32)N1

>  <cat>
inactive

$$$$
>  <compound>
O1C2C1C1OC1C1OC1C1OC21 (stereo unspecified)

>  <cat>
inactive

$$$$
>  <compound>
COc1ccc(-c2nnc3nc4ccccc4n3c2O)cc1

>  <cat>
inactive

$$$$
>  <compound>
C=C1C[C@@H]2O[C@H]3[C@H]4[C@@H](C[C@@H](C)[C@@H](OC(C)=O)[C@H]42)[C@@H](C)CO[C@@]3(C)[C@H](OC(=O)CCCCCCC)C[C@H]1O

>  <cat>
inactive

$$$$
>  <compound>
CCNc1ncnc2sc(SCc3ccccc3)nc12

>  <cat>
inactive

$$$$

[ask] GET /call?item= "Nc1nn2c(nc(N)c3c(N)n[nH]c32)c1/N=N\c1ccc(Br)cc1" returns the recorded outcome of this test.
[reply] inactive

[ask] Check "COc1cc2c(/C=C3/C(=O)Nc4ccc(Cl)cc43)c(Cl)[nH]c2cc1C" too.
[reply] active

[ask] Check "Cc1ccc(N(O)C(C)(C)C)cc1" too.
[reply] inactive

[ask] Check "COc1ccc(N2C(=O)c3cc([N+](=O)[O-])cnc3S2(=O)=O)cc1" too.
[reply] inactive

[ask] Check CN(C)CC1CN/C(=N\C(=O)Nc2ccccc2)O1 (stereo unspecified) too.
[reply] inactive

[ask] Check "Cc1oc2c(cc(O)c3cc(O)ccc32)c2cccc1-2" too.
[reply] inactive

[ask] Check "C/C(=N\Nc1nc2ccccc2n1C)c1ccncn1" too.
[reply] active

[ask] Check "N=C(/C=C/c1ccc(-c2cn3cc(/C=C/C(=N)N4CCOCC4)ccc3n2)cc1)N1CCOCC1" too.
[reply] inactive

[ask] Check "CC(C)(C)c1ccc2c(c1)CNCCNCc1cc(C(C)(C)C)ccc1OCC1(CO2)COc2ccc(C(C)(C)C)cc2CNCCNCc2cc(C(C)(C)C)ccc2OC1" too.
[reply] inactive

[ask] Check "CC(C)(C)c1c(C(C)(C)C)c(=O)c1=O" too.
[reply] inactive

[ask] Check "Cc1nc(C(N)=S)sc1C(=O)CC(=O)C(=O)Nc1ccc(Br)cc1" too.
[reply] inactive

[ask] Check "COc1cc(C)cc2c(-c3c(O)cc(O)c4c3C[C@H](C)N[C@H]4C)cc(-c3cc(-c4c(O)cc(O)c5c4C[C@H](C)N[C@H]5C)c4cc(C)cc(OC)c4c3O)c(O)c12" too.
[reply] inactive

[ask] Check "Br[C@@H]1[C@H]2c3nc4ccccc4nc3[C@@H]1C[C@H]2Br" too.
[reply] inactive

[ask] Check "N#Cc1ccccc1C#C/C=C\C#Cc1ccccn1" too.
[reply] inactive

[ask] Check "Cc1c(O)nc(/C=C/C(=O)O)nc1C(=O)O" too.
[reply] inactive

[ask] Check "Nc1ccccc1C(=O)NC(=O)Nc1ccc(Oc2ncc(Br)cn2)c(Cl)c1" too.
[reply] active

[ask] Check "C/C(CC(O)(C(F)(F)F)C(F)(F)F)=N\N" too.
[reply] inactive

[ask] Check CCOC(=O)C1=CN/C(=C(/C)C(=O)OC)SC1C(=O)OCC (stereo unspecified) too.
[reply] inactive

[ask] Check "CSc1ccc2c(cc1=O)[C@@H](NC(=O)c1ccc(N)cc1)CCc1cc(O)c(O)c(O)c1-2" too.
[reply] inactive

[ask] Check "CCOC(=O)CSc1nc(N)c2c(-c3ccccc3)c3c(nc2n1)CCCC3" too.
[reply] inactive

[ask] Check Nc1ncnc2c1ncn2C1CCC(CP(=O)(O)O)C1 (stereo unspecified) too.
[reply] inactive

[ask] Check O=C(O)/C=C(/C(=O)O)C12CCN3CC4=CCOC5CC(=O)NC1C5C4CC32 (stereo unspecified) too.
[reply] inactive
